- test.method.notes: Selectivity index, ratio of LD50 for human hTERT-BJ cells to LD50 for human MCF7 cells
- Format: toxicity
- conditions: hTERT-BJ cells versus MCF7 cells, read-out: Selectivity Index
value.kind: selectivity ratio
Please reply with the value in numeric form only.

Input: Note selectivity ratio for the compound shown: c1cc2cc(c1)-c1cccc(c1)CNCCN1CCNCc3cccc(c3)-c3cccc(c3)CNCCN(CCNC2)CCNCc2cccc(c2)-c2cccc(c2)CNCC1
Output: 2

----------
- test.method.notes: Binding affinity to FAM-TWJ-TAMRA DNA (unknown origin) assessed as change in melting temperature at 1 uM after 30 mins in presence of 10 uM ds26 DNA by FRET assay
value.kind: ΔTm (°C)
The reply should be a number in °C, with the unit left off.

Sample records with ΔTm:
c1cc2cc(c1)-c1cccc(c1)CNCCN1CCNCc3cccc(c3)-c3cccc(c3)CNCCN(CCNC2)CCNCc2cccc(c2)-c2cccc(c2)CNCC1 :: 15.9
c1cc2c3nc4c(cccc4cc3c1)CNCCOCCNCc1cccc3cc4cccc(c4nc13)CNCCOCCNC2 :: 4.6
C[n+]1ccc(-c2c3nc(c(-c4cc[n+](C)cc4)c4ccc([nH]4)c(-c4cc[n+](C)cc4)c4ccc([nH]4)c(-c4cc[n+](C)cc4)c4nc2C=C4)C=C3)cc1 :: 8

Input: State its ΔTm for this compound: c1cc2c3cccc(c3c1)CNCCOCCNCc1cccc3c(cccc13)CNCCOCCNC2
Output: 8.5

Input: Identify ΔTm associated with the compound COCCOCCOCC[n+]1ccc(-c2c3nc(c(-c4cc[n+](CCOCCOCCOC)cc4)c4ccc([nH]4)c(-c4cc[n+](CCOCCOCCOC)cc4)c4nc(c(-c5cc[n+](CCOCCOCCOC)cc5)c5ccc2[nH]5)C=C4)C=C3)cc1
Output: 4

Input: Please supply the value of reported ΔTm for the item c1cc2nc3ccc4cc3cc2cc1CNCCOCCNCc1ccc2nc3ccc(cc3cc2c1)CNCCOCCNC4
Output: 17.1

----------
- test.method.notes: Binding affinity to FAM-TWJ-TAMRA DNA (unknown origin) assessed as change in melting temperature at 1 uM after 30 mins by FRET assay
Classification field: enter MET for ΔTm values not below 2 °C, NOT MET for values below it.

Sample answers from the record:
C[n+]1ccc(-c2c3nc(c(-c4cc[n+](C)cc4)c4ccc([nH]4)c(-c4cc[n+](C)cc4)c4ccc([nH]4)c(-c4cc[n+](C)cc4)c4nc2C=C4)C=C3)cc1 :: MET
c1cc2ccc3ccc(-[n+]4csc5ccccc54)c4ccc(c1)c2c34 :: NOT MET
c1cc2ccc3cc2cc1CNCCNCCNCc1ccc2ccc(cc2c1)CNCCNCCNC3 :: MET
c1cc2nc3ccc4cc3cc2cc1CNCCOCCNCc1ccc2nc3ccc(cc3cc2c1)CNCCOCCNC4 :: MET
c1cc2c3nc4c(cccc4cc3c1)CNCCOCCNCc1cccc3cc4cccc(c4nc13)CNCCOCCNC2 :: MET

Input: Hello, I need to know if c1cc2cc(c1)-c1cccc(c1)CNCCN1CCNCc3cccc(c3)-c3cccc(c3)CNCCN(CCNC2)CCNCc2cccc(c2)-c2cccc(c2)CNCC1 has measured ΔTm not below 2 °C. Thanks!
Output: MET

Input: Answer whether ΔTm of c1cc2c3cccc(c3c1)CNCCOCCNCc1cccc3c(cccc13)CNCCOCCNC2 is greater than or equal to 2 °C.
Output: MET

Input: Please check the record Cn1c[n+](-c2ccc3ccc4cccc5ccc2c3c45)cn1 and state if its ΔTm is at or above 2 °C.
Output: NOT MET

Input: Determine whether this compound has ΔTm no lower than 2 °C: CN(C)CCCNCC12c3ccccc3C(CNCCCN(C)C)(c3ccccc31)c1ccccc12
Output: NOT MET

Input: Determine whether this compound has ΔTm no lower than 2 °C: NCCCNC[C@]12c3ccccc3[C@](CNCCCN)(c3ccccc31)c1cc3ccccc3cc12
Output: NOT MET

Input: Does ΔTm meet or surpass 2 °C for COCCOCCOCC[n+]1ccc(-c2c3nc(c(-c4cc[n+](CCOCCOCCOC)cc4)c4ccc([nH]4)c(-c4cc[n+](CCOCCOCCOC)cc4)c4nc(c(-c5cc[n+](CCOCCOCCOC)cc5)c5ccc2[nH]5)C=C4)C=C3)cc1 ?
Output: MET
